Source of measurements: patent US20190248900A1

Hi there, I'd appreciate the recorded OD490 for every entry that follows.
- assayedSystem: T1, ITGA6-Fc
- T1 construct: Fc fusion
- T1 sequence (P23229 whole entry, species assumed, looked up): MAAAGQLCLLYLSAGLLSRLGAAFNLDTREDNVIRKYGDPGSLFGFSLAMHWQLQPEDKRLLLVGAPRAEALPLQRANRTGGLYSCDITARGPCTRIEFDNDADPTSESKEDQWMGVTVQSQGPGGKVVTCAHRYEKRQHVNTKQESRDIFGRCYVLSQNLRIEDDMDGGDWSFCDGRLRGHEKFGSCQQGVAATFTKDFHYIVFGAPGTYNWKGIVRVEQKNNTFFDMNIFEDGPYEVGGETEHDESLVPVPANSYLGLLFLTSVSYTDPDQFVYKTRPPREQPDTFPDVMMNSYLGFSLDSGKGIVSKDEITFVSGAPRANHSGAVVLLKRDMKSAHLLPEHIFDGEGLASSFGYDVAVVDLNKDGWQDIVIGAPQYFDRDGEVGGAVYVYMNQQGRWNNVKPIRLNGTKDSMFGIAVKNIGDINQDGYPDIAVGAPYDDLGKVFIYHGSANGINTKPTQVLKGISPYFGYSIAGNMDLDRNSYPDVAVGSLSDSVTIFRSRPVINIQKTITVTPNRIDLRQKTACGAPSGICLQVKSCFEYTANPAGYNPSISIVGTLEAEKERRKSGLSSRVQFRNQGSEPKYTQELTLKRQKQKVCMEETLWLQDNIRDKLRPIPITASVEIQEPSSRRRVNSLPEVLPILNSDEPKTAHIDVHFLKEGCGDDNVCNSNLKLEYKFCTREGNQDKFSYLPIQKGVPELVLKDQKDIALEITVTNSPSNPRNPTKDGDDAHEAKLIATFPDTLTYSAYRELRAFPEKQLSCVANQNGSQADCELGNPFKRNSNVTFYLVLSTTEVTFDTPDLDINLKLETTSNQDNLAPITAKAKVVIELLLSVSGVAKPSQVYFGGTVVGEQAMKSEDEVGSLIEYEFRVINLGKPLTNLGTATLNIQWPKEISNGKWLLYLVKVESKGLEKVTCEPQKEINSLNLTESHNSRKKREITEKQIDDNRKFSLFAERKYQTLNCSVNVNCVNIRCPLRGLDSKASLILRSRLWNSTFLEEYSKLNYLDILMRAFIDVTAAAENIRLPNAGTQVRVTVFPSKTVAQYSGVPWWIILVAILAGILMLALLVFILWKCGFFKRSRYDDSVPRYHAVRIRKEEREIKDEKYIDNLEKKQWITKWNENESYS
- measurementProtocol: ELISA, 1 ug/ml
Give bare numbers.

Worked set:
Using the record for PD1-49A2(A/2B9) (antibody, V domains shown, scFv-phage in the screening ELISA; whole IgG in the other assays; also called 49A2-2B9; 49A2 (2B9)) VH: QVQLVESGGGVVQPGRSLRLSCAASGFTFLRYAMHWVRQAPGKGLEWVAVISYDGRYKYYADSVKGRFTISRDNSKNTLYLQMNSLRAEDTAVYYCTTTTFDSWGQGTLVTVSS VL: DIVMTQTPLSLPVTPGEAASISCRSSQSLLDSEDGNTYLDWYLQKPGQSPQLLIYTLSHRASGVPDRFSGSGSGTDFTLEISRVEAEDVGVYYCMQRRDFPFTFGQGTKVDIK , report its OD490.
0.1

Thanks! And PD1-45D6 (antibody, V domains shown, scFv-phage in the screening ELISA; whole IgG in the other assays) VH: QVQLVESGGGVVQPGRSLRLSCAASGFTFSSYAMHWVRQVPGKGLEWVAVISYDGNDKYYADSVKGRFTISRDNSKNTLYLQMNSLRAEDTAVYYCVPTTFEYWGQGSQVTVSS VL: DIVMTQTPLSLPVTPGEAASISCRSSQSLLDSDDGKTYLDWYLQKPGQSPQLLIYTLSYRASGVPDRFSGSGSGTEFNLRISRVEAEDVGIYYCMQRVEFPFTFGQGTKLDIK ?
0.5

Also PD1-49A2 (antibody, V domains shown, scFv-phage in the screening ELISA; whole IgG in the other assays; also called Parent 49A2) VH: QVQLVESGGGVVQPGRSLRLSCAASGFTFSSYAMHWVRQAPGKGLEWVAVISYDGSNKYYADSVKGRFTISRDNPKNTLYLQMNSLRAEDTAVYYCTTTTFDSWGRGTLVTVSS VL: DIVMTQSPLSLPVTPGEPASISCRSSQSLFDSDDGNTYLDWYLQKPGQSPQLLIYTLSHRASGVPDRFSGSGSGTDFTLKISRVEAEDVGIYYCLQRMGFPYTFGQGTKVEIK ?
0.2

Queued: PD1-41C9 (antibody, V domains shown, scFv-phage in the screening ELISA; whole IgG in the other assays) VH: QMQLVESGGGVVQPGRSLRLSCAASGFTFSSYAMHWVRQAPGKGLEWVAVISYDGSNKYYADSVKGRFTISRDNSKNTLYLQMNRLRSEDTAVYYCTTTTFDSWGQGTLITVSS VL: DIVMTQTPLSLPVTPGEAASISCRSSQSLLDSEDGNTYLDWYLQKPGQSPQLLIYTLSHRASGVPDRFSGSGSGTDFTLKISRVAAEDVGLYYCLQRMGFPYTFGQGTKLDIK
0.5

Proceed to PD1-52E8 (antibody, V domains shown, scFv-phage in the screening ELISA; whole IgG in the other assays) VH: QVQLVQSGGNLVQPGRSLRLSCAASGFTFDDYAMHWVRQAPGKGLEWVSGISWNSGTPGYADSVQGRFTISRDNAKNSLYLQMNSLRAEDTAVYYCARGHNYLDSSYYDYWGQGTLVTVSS VL: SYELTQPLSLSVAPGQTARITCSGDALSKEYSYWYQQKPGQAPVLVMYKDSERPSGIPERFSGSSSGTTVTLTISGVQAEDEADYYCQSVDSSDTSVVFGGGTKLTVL
0.1

Same read-out for mPDL2-mFC (Fc fusion, mouse (prefix m on the sheet), UniProt Q9WUL5 20-221, looked up, mFC fusion) ligand fused to Fc: LFTVTAPKEVYTVDVGSSVSLECDFDRRECTELEGIRASLQKVENDTSLQSERATLLEEQLPLGKALFHIPSVQVRDSGQYRCLVICGAAWDYKYLTVKVKASYMRIDTRILEVPGTGEVQLTCQARGYPLAEVSWQNVSVPANTSHIRTPEGLYQVTSVLRLKPQPSRNFSCMFWNAHMKELTSAIIDPLSRMEPKVPRTW ?
0.3

Turning to the following binder.
Field request: OD490 | item: PD1-45D6(A/5B2) (antibody, V domains shown, scFv-phage in the screening ELISA; whole IgG in the other assays; also called 45D6-5B2; PD1 45D6 5B2) VH: QVQLVESGGGVVQPGRSLRLSCAASGFTFSFYAMHWVRQAPGKGLEWVAVISYDGNDKYYADSVKGRFTISRDNSKNTLYLQMNSLRAEDTAVYYCVPTTFEYWGQGTLVTVSS VL: DIVMTQTPLSPPVTPGEPASISCRSSQSLLDSDDGNTYLDWYLQKPGQSPQLLIYTLSHRASGVPDRFSGSGSGTDFTLEISRVEAEDVGVYYCMQRRDFPFTFGQGTKLDIK
0.124
